Quick list: binding signal per entry.
Target: T1, RBFOX1 RRM (Homo sapiens, UniProt Q9NWB1 109-208)
T1 sequence: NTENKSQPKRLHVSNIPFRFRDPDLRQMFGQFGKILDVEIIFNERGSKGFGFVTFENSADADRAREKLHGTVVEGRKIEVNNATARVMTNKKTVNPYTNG
Experiment: EMSA; HiTS-Eq, 1 nM pool, 10 min; buffer printed only for the single-RNA assays: 10 mM Tris pH 7.5, 150 mM NaCl, 3.4 mM EDTA, 0.001% NP-40, 30 C
Settings: tags: His6 N-terminal (pET28a); label: 5' 32P
In all, about 16,000 sequences were measured (“ka relative to ugcaugu”: median about 0.0091, highest 2% from about 0.032 on). The sample as a whole holds a higher share of the highest values than the screen did.
OBSERVATION_TYPE: binding signal

• GCAUGUG (DNA:RNA) RNA: GGGAGACCGGAAUUCAGAUUGUCCGCAUGUGUUAAAUCCCGUCGUAGCCACCA DNA 1: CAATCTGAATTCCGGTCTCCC DNA 2: TGGTGGCTACGACGGGATT = 0.8 KA relative to UGCAUGU
• UCAUCUG (DNA:RNA) RNA: GGGAGACCGGAAUUCAGAUUGUCCUCAUCUGUUAAAUCCCGUCGUAGCCACCA DNA 1: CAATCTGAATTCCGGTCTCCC DNA 2: TGGTGGCTACGACGGGATT = 0.00773 KA relative to UGCAUGU
• UCCGCCC (DNA:RNA) RNA: GGGAGACCGGAAUUCAGAUUGUCCUCCGCCCUUAAAUCCCGUCGUAGCCACCA DNA 1: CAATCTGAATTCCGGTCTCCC DNA 2: TGGTGGCTACGACGGGATT = 0.00894 KA relative to UGCAUGU
• GCGCAUC (DNA:RNA) RNA: GGGAGACCGGAAUUCAGAUUGUCCGCGCAUCUUAAAUCCCGUCGUAGCCACCA DNA 1: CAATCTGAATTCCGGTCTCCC DNA 2: TGGTGGCTACGACGGGATT = 0.0246 KA relative to UGCAUGU
• GCACAUG (DNA:RNA) RNA: GGGAGACCGGAAUUCAGAUUGUCCGCACAUGUUAAAUCCCGUCGUAGCCACCA DNA 1: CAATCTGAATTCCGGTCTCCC DNA 2: TGGTGGCTACGACGGGATT = 0.0141 KA relative to UGCAUGU
• GCGCGCA (DNA:RNA) RNA: GGGAGACCGGAAUUCAGAUUGUCCGCGCGCAUUAAAUCCCGUCGUAGCCACCA DNA 1: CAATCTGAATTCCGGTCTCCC DNA 2: TGGTGGCTACGACGGGATT = 0.0238 KA relative to UGCAUGU
• GCAUAUG (DNA:RNA) RNA: GGGAGACCGGAAUUCAGAUUGUCCGCAUAUGUUAAAUCCCGUCGUAGCCACCA DNA 1: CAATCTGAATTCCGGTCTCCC DNA 2: TGGTGGCTACGACGGGATT = 0.00982 KA relative to UGCAUGU
• GUCCGUC (DNA:RNA) RNA: GGGAGACCGGAAUUCAGAUUGUCCGUCCGUCUUAAAUCCCGUCGUAGCCACCA DNA 1: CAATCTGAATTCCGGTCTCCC DNA 2: TGGTGGCTACGACGGGATT = 0.0149 KA relative to UGCAUGU
• GCGCAUG (DNA:RNA) RNA: GGGAGACCGGAAUUCAGAUUGUCCGCGCAUGUUAAAUCCCGUCGUAGCCACCA DNA 1: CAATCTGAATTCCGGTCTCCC DNA 2: TGGTGGCTACGACGGGATT = 0.843 KA relative to UGCAUGU
